- target_desc: GABARAP, O95166
- Sequence (O95166 whole entry, the tested form may be a part): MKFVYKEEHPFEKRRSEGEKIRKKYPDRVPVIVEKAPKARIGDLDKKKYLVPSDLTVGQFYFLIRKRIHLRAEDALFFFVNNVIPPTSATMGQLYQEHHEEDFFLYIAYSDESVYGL
- protocol_text: median log2 fold change of GCK-ALFA target abundance (FLAG IP / Myc IP barcode read proportion) (log2 ratio); each designed protein is fused to an ALFA-tag nanobody in HEK293 cells to bring the named protein to FLAG-tagged glucokinase (GCK); Myc marks an untargeted standard; higher = target protein stabilised (more abundant)
- condition: target protein: 3xFLAG-MCP-GCK-ALFA reporter; HEK293 landing pad (RPLP)
Over roughly 4,500 sequences, “median log2 fold change of GCK-ALFA target abundance (FLAG IP / Myc IP barcode read proportion)” has its median near 0.078; the lowest 2% begin near -0.6. Shown is part of a subset that was picked to be rich in the lowest values.
assay_metric: median log2 fold change
Reply with the value as a number alone.

# count of solved cases: 10
GBRAP_52_6372 (protein) REAEARAIVDELLALAEAGDEEGVEALVREVLASGDGALQAAVLREIRRRLEARDHPDPEALLRLAAIVADEVLEAEVDSPEVWAALTALAAAALALERA	-0.638
GBRAP_14_3765 (protein) MEEVEKIIDETGKEIAALLAELVPEKAEEFKEAIDEVRKETIARIKETGDALAAAEEGERRLAERIAEITADLPEERRAEALAVVRVLFGQAILEIDEAL	0.0613
GBRAP_160_4238 (protein) SEEIEKLREEITDEAELLLDVLLESPKSQWPAYARAFAGDIVQIVEENENVSDETEEKVAELADEMVAELVAARDASPEELAALLERFVERIVKTVEEGV	-0.458
GBRAP_160_4419 (protein) DELIEEVDELLDETEELVVELVEEGKREEAIAALRVGAGEILLLLDEDESVSEETEEKVDKILDETIKKFEENKDASPEEVRELLDKAREEILAVLKEGS	-0.0618
GBRAP_78_6635 (protein) EVEELIDKALEKVSEAAKAALKLPLDLRAEVLDELSDAAVELVEAEEGEDKEEELEEALEELEEALEIVEENDSPLTEEIKKLLEEAIELVKKAIEELKE	-1.21
GBRAP_52_6084 (protein) MKEKIEKTAKEIYEAIKAGDKEKALELIKKAVEEFSKEEIKEMLELTAKRVASLGDDAHELFVDILDEAEDILIEAGISEDDALLIVGSAEAALAKAVAA	-0.732
GBRAP_160_4217 (protein) MELVEKLVEIVREEFEEALELIEGESEEERRVILDVAVGNVILEAMEIPGVTDEMEEVVEEKSRELAEELLEARDKSEEERRKLIEERVEELREELEKLE	-0.6
GBRAP_128_3244 (protein) SQEELLEEAKKLVDEIVEADVEEAKELTKKLIELMKKLNKESREEVADYLIEKLKELSAEKLEAVADTLRENRPKLDDYTAALVAGVEIEALELALEQEE	-0.658
GBRAP_160_4135 (protein) SEELEKLIKEIKEIGEEALEMIEGETPENAKVIARVALGDIVMLVESNDAISEETEDEIGKIADEAEATLKANPDLTVEEIKALLKEATEKVVEIIEKEK	-0.387
GBRAP_52_6085 (protein) MEEEIEERAEEIYEAIKAGDKEKALALIKKAIKEFSAEEIKRMLELTAKRVASLGDDAHELFVDILGEAEDLLIEAGISEEEALAIVGAAEAALARAVAA	-0.146

Query binder follows.
Give the measured median log2 fold change of GBRAP_83_6915 (protein) MKEITVAAVGDHIDEAFDAAIDLKKEGVEKIIVEAIIKPEEVPRLLEAVKRALEAGVNLELEVFLEGATEEEAEEVEKKLKEIAKEAGKEVKVTVEVIEP .
0.19

The values you see were collected from the supplement of paper PMC12632987.
